Tested on: Mycolicibacterium smegmatis
ASSAY: Antimycobacterial activity against Mycobacterium smegmatis grown in carbon-limited broth medium assessed as growth inhibition in mid-logarithmic phase by GFP-based fluorescence assay
Type: functional, organism-based
STUDY CONDITIONS: Mycolicibacterium smegmatis
ENDPOINT: IC50 (µM)

1) O=C(Nc1ccc([N+](=O)[O-])cc1Cl)c1cc(Cl)ccc1O [NICLOSAMIDE] :: 3.31
2) Clc1ccccc1C(c1ccccc1)(c1ccccc1)n1ccnc1 :: 18.2
3) CN(C)C(CCCCC[N+](C)(C)CCCN1C(=O)c2cccc3cccc(c23)C1=O)CCCN1C(=O)c2cccc3cccc(c23)C1=O (stereo unspecified) :: 11.7
4) Cc1cc(N)c2ccccc2[n+]1CCCCCCCCCCCCCC[n+]1c(C)cc(N)c2ccccc21 :: 2.73
5) CC1COc2c(N3CCN(C)CC3)c(F)cc3c(=O)c(C(=O)O)cn1c23 (stereo unspecified) :: 3.13
6) CN(C)c1ccc(O)c2c1C[C@H]1C[C@H]3[C@H](N(C)C)C(O)=C(C(N)=O)C(=O)[C@@]3(O)C(O)=C1C2=O :: 5.02

###

Listed compounds paired with reported MIC
Test system: Mycolicibacterium smegmatis
ASSAY: Antimycobacterial activity against Mycobacterium smegmatis grown in Luria-Bertani broth medium assessed as growth inhibition in mid-logarithmic phase by spectrophotometry
Format: functional, organism-based
STUDY CONDITIONS: Mycolicibacterium smegmatis
Counter-ions that a name gives are not always drawn.
ENDPOINT: MIC (µM)

1) Cc1c(C)c2c(c(C)c1O)CCC(C)(CN1CCN(c3cc(N4CCCC4)nc(N4CCCC4)n3)CC1)O2 (single isomer, unassigned) :: 50
2) CC(=O)[C@]1(O)Cc2c(O)c3c(c(O)c2[C@@H](O[C@H]2C[C@H](N)[C@H](O)[C@H](C)O2)C1)C(=O)c1ccccc1C3=O :: 12.5
3) CCn1cc(C(=O)O)c(=O)c2cc(F)c(N3CCNC(C)C3)c(F)c21 (stereo not drawn) :: 12.5
4) CN[C@H](CC(C)C)C(=O)N[C@H]1C(=O)N[C@@H](CC(N)=O)C(=O)N[C@H]2C(=O)N[C@H]3C(=O)N[C@H](C(=O)N[C@H](C(=O)O)c4cc(O)cc(O)c4-c4cc3ccc4O)[C@H](O)c3ccc(c(Cl)c3)Oc3cc2cc(c3O[C@@H]2O[C@H](CO)[C@@H](O)[C@H](O)[C@H]2O[C@H]2C[C@](C)(N)[C@H](O)[C@H](C)O2)Oc2ccc(cc2Cl)[C@H]1O :: 12.5
5) O=C(Nc1ccc([N+](=O)[O-])cc1Cl)c1cc(Cl)ccc1O [NICLOSAMIDE] :: 12.5
6) O=C1c2c(O)ccc(O)c2C(=O)c2c(NCCNCCO)ccc(NCCNCCO)c21 :: 50
7) Clc1ccccc1C(c1ccccc1)(c1ccccc1)n1ccnc1 :: 12.5
8) CC(C)(C)c1ccc(S(=O)(=O)/C=C/C#N)cc1 :: 50
9) c1cnc2c(c1)ccc1cccnc12 :: 50
10) C[C@H]1c2cccc(O)c2C(=O)C2=C(O)[C@]3(O)C(=O)C(C(N)=O)=C(O)[C@@H](N(C)C)[C@@H]3[C@@H](O)[C@@H]21 :: 1.56
11) c1ccc2c(c1)[I+]c1ccccc1-2 :: 6.25
12) Cc1cc(N)c2ccccc2[n+]1CCCCCCCCCCCCCC[n+]1c(C)cc(N)c2ccccc21 :: 6.25
13) CN1CCN(CCCN2c3ccccc3Sc3ccc(C(F)(F)F)cc32)CC1 :: 50
14) CN(C)[C@@H]1C(O)=C(C(N)=O)C(=O)[C@@]2(O)C(O)=C3C(=O)c4c(O)ccc(Cl)c4[C@@H](O)[C@H]3C[C@@H]12 :: 3.12
15) N=C(N)c1ccc(OCCCCCOc2ccc(C(=N)N)cc2)cc1 :: 50
16) CNc1ccc2oc(C[C@H]3O[C@@]4(CC[C@H]3C)O[C@H]([C@H](C)C(=O)c3ccc[nH]3)[C@H](C)C[C@H]4C)nc2c1C(=O)O :: 3.12
17) Clc1ccc(C(c2ccc(Cl)cc2)[n+]2ccn(CC(OCc3ccc(Cl)cc3Cl)c3ccc(Cl)cc3Cl)c2)cc1 (stereo not drawn) [CALMIDAZOLIUM CHLORIDE] :: 12.5
18) O=S1(=O)N(CCN2CC=C(c3c[nH]c4cc(F)ccc34)CC2)c2cccc3c2N1CCC3 :: 50
19) CN(C)C(CCCCC[N+](C)(C)CCCN1C(=O)c2cccc3cccc(c23)C1=O)CCCN1C(=O)c2cccc3cccc(c23)C1=O (stereo not drawn) :: 50
20) CN(C)c1ccc(O)c2c1C[C@H]1C[C@H]3[C@H](N(C)C)C(O)=C(C(N)=O)C(=O)[C@@]3(O)C(O)=C1C2=O :: 12.5
21) COc1ccccc1CNCCCCCCNCCCCCCCCNCCCCCCNCc1ccccc1OC [METHOCTRAMINE HYDROCHLORIDE] :: 12.5
22) CC1COc2c(N3CCN(C)CC3)c(F)cc3c(=O)c(C(=O)O)cn1c23 (stereo not drawn) :: 3.12

###

Tested on: Mycolicibacterium smegmatis
ASSAY: Antimycobacterial activity against Mycobacterium smegmatis grown in carbon-limited broth medium assessed as growth inhibition in mid-logarithmic phase by GFP-based fluorescence assay
Assay type: functional, organism-based
STUDY CONDITIONS: Mycolicibacterium smegmatis
ENDPOINT: IC50 (µM)

1) N=C(N)c1ccc(OCCCCCOc2ccc(C(=N)N)cc2)cc1 [PENTAMIDINE] :: 11.1
2) O=C1c2c(O)ccc(O)c2C(=O)c2c(NCCNCCO)ccc(NCCNCCO)c21 [MITOXANTRONE] :: 9.7
3) c1cnc2c(c1)ccc1cccnc12 [PHENANTHROLINE] :: 4.99
4) CN(C)[C@@H]1C(O)=C(C(N)=O)C(=O)[C@@]2(O)C(O)=C3C(=O)c4c(O)ccc(Cl)c4[C@@H](O)[C@H]3C[C@@H]12 [DEMECLOCYCLINE] :: 5.92
5) Clc1ccc(C(c2ccc(Cl)cc2)[n+]2ccn(CC(OCc3ccc(Cl)cc3Cl)c3ccc(Cl)cc3Cl)c2)cc1 (configuration not stated) [CALMIDAZOLIUM CHLORIDE] :: 13.8
6) CNc1ccc2oc(C[C@H]3O[C@@]4(CC[C@H]3C)O[C@H]([C@H](C)C(=O)c3ccc[nH]3)[C@H](C)C[C@H]4C)nc2c1C(=O)O [CALCIMYCIN] :: 5.21

###

System: Mycolicibacterium smegmatis
ASSAY: Antimycobacterial activity against Mycobacterium smegmatis grown in nitrogen -limited broth medium assessed as growth inhibition in mid-logarithmic phase by spectrophotometry
Assay type: functional, organism-based
pIC50: −log10 of the molar value.
ENDPOINT: pIC50

1) 4-CHLOROMERCURIBENZOIC ACID :: 5.20

###

System: Mycolicibacterium smegmatis
ASSAY: Antimycobacterial activity against Mycobacterium smegmatis grown in nitrogen -limited broth medium assessed as growth inhibition in mid-logarithmic phase by GFP-based fluorescence assay
Assay type: functional, organism-based
STUDY CONDITIONS: Mycolicibacterium smegmatis
pIC50: −log10 of the molar value. Structures can show the parent of a compound that is named as a salt.
ENDPOINT: pIC50

1. CNc1ccc2oc(C[C@H]3O[C@@]4(CC[C@H]3C)O[C@H]([C@H](C)C(=O)c3ccc[nH]3)[C@H](C)C[C@H]4C)nc2c1C(=O)O :: 5.46
2. COc1ccccc1CNCCCCCCNCCCCCCCCNCCCCCCNCc1ccccc1OC [METHOCTRAMINE HYDROCHLORIDE] :: 5.13
3. CN(C)[C@@H]1C(O)=C(C(N)=O)C(=O)[C@@]2(O)C(O)=C3C(=O)c4c(O)ccc(Cl)c4[C@@H](O)[C@H]3C[C@@H]12 :: 5.36
4. c1ccc2c(c1)[I+]c1ccccc1-2 :: 5.79
5. Cc1cc(N)c2ccccc2[n+]1CCCCCCCCCCCCCC[n+]1c(C)cc(N)c2ccccc21 :: 5.76

Origin of values: ChEMBL document CHEMBL1649296
